- method description: Experiment 3: permeability of hydrophilic cosurfactant to the gelatin shell, content in soft capsule in course of time
- Type: physicochemical
- experimental context: solvent:Cremophor RH40 3:7 in soft capsule; day 30
molecules and their reported Change of the content of hydrophilic cosurfactant
Provide only the numeric value, understood in wt %.

{"columns": ["molecule", "observed measurement"],
 "data": [
  ["CC1COC(=O)O1 (racemic) [Propylene carbonate, (±)-4-methyl-1,3-dioxolan-2-one]", 28.4],
  ["CO[C@H]1CO[C@H]2[C@@H]1OC[C@H]2OC [Dimethylisosorbide]", 28.7],
  ["CCOCCOCCO [Transcutol, diethyleneglycol monoethyl ether]", 21.9]
]}

Consider the record given below.
Given CC(O)CO (stereo not shown) , state its recorded Change of the content of hydrophilic cosurfactant.
21.0
